Reference for the values: ChEMBL document CHEMBL1201862

# test-target: cAMP-dependent protein kinase catalytic subunit alpha (Homo sapiens)
# Format: functional
The source made the active and inactive calls.
measurement-label: Ki

Sample records with Ki:
- compound: "OCc1cc(-c2ccc3[nH]ncc3c2)on1"
  Ki: "5010 nM (active)"
- compound: "CC(C)(O)c1cn(-c2ccc3[nH]ncc3c2)nn1"
  Ki: "10000 nM (active)"
- compound: "CC(C)(O)CNc1cc(-c2c[nH]c3ncccc23)cc(Cl)n1"
  Ki: "316 nM (active)"

Attention now turns to another entry.
Ask: Assign Ki to the following record: NC1CCC(Nc2nccc(-c3c[nH]c4ncccc34)n2)CC1 (centres undefined)
Reply: 50.1 nM (active)

----------
# test-target: Latent membrane protein 1 (Human herpesvirus 4 (strain B95-8))
# Sequence (P03230 whole entry): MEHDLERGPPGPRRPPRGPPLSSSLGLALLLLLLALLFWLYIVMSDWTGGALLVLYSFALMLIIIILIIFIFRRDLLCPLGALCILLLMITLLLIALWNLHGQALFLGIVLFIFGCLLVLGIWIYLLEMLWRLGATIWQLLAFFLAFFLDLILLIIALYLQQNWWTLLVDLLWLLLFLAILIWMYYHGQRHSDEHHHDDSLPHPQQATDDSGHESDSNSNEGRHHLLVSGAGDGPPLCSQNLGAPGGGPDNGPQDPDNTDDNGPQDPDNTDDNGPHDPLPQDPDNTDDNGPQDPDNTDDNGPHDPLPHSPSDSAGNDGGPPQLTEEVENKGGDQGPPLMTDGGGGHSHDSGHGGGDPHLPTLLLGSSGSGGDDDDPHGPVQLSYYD
# experiment: TES1-eGFP NF-kB reporter inhibition versus Tet-On dsRED, dose response, selectivity assay for LMP1 NF-kB inhibitor project, imaging, HEK293T, dual-color eGFP/dsRED, cherry-picks (AID 588398)
# Type: functional, cell-based
Active and inactive are the calls of the source. The rule behind the calls is not given here.
Below, each of the molecules is paired with its reported AC50 value.

Sample records with AC50:
- molecule: "N#CC1=C(N)N2C(=C(C#N)C1c1cccc(Br)c1)Nc1ccccc12 (centres undefined)"
  test-target: "Latent membrane protein 1 (Human herpesvirus 4 (strain B95-8))"
  data-value: "54 µM (active)"
- molecule: "c1ccc(-c2cn3c4c(sc3n2)CCCC4)cc1"
  test-target: "Latent membrane protein 1 (Human herpesvirus 4 (strain B95-8))"
  data-value: "47.1 µM (active)"
- molecule: "O=Cc1cc(OCc2ccccc2)ccc1[B-](F)(F)F"
  test-target: "Latent membrane protein 1 (Human herpesvirus 4 (strain B95-8))"
  data-value: "1.14 µM (active)"

Attention now turns to another entry.
Ask: Consider the molecule Oc1cccc(C(Nc2nccs2)c2ccc3cccnc3c2O)c1 (centres undefined) tested on Latent membrane protein 1 (Human herpesvirus 4 (strain B95-8)); state its AC50.
Reply: 8.97 µM (active)

----------
# test-target: Calpain-2 catalytic subunit (Sus scrofa)
# Sequence (P43367 whole entry): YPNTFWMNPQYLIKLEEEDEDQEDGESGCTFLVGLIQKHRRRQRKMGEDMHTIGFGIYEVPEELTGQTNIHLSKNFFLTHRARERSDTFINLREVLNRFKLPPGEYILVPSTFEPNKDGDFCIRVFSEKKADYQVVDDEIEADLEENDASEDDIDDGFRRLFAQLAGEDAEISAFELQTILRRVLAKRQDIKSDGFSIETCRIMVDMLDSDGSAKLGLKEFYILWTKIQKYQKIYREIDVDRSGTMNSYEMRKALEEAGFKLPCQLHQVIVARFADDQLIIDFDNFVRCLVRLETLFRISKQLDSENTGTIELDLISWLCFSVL
# experiment: pig calpain II inhibitor potency, dose response, biochemical, fluorogenic peptide substrate (AID 1420)
# Type: functional
The source made the active and inactive calls. How the calls were made is not given here.
Below, each of the compounds is paired with its reported IC50 value.

Sample records with IC50:
- compound: "O=S(=O)(Nc1ccc(-n2cccc2)cc1)c1ccc(Cl)cc1Cl"
  IC50: "9.85 µM (not active)"
- compound: "CCCCn1c(S)nnc1-c1csc2c1CCC(C)C2 (stereo not given)"
  IC50: "18.2 µM (not active)"
- compound: "CCCNC(=O)c1c(CSc2ccccc2)noc1C(=O)NCc1ccccc1"
  IC50: "3.24 µM (not active)"

Ask: Assign IC50 to the following record: CCN(CC)CCCNC1=C(Cl)C(=O)c2ccccc2C1=O
Reply: 9.5 µM (not active)

Ask: Assign IC50 to the following record: Cc1cccc(/C=C/C(=O)c2ccc(N3CCOCC3)cc2)c1
Reply: 15.7 µM (not active)

Ask: Assign IC50 to the following record: Cc1cc(NC(=S)N(Cc2cccc(Br)c2)CC2CCC(C(=O)O)CC2)ccc1Cl (stereo not given)
Reply: 11.3 µM (not active)

Ask: Assign IC50 to the following record: CCCCN(CCCC)C(=O)/C=C/c1cccc([N+](=O)[O-])c1
Reply: 19.4 µM (not active)

Ask: Assign IC50 to the following record: CC(C)C[C@H](NC(=O)c1[nH]cnc1C(=O)NCc1ccccc1)C(=O)OC(C)(C)C
Reply: 10.8 µM (not active)

Ask: Assign IC50 to the following record: O=C(O/N=C1\CCS(=O)(=O)c2sccc21)c1ccc(F)cc1
Reply: < 0.4 µM (not active)

Ask: Assign IC50 to the following record: CC(C)Cn1c(N)c(C(=O)COC(=O)c2cccc(Cl)c2)c(=O)n(C)c1=O
Reply: 6.14 µM (active)
